- System: Escherichia coli TOP10;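 also: peptides expressed intracellularly from a pBAD plasmid library in pooled LB shake-flask culture, induced with 0.3% L-arabinose, DNA abundance read by NGS, three biological replicates, DESeq2 with apeglm shrinkage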
- assay_remarks: shrunken log2 fold change of peptide-encoding DNA abundance (4.5 h post-induction vs induction); higher = less antimicrobial activity (less host growth inhibition)
- experimental_conditions: time post-induction: 4.5 h; library: site-saturation at positions 5, 18, 19, 20
Each record gets a class by shrunken log2 fold change: lowest (below -0.02), middle (-0.02 to below 0.1), highest (0.1 or more)

RRIRSRPPRLPRPRPRPLVIPRP; lowest
RRIRDRPPRLPRPRPRPQDIPRP; middle
RRIRRRPPRLPRPRPRPSQKPRP; middle
RRIRGRPPRLPRPRPRPCRCPRP; highest
RRIRRRPPRLPRPRPRPTIIPRP; lowest
RRIRWRPPRLPRPRPRPGKFPRP; highest
RRIRGRPPRLPRPRPRPTRQPRP; highest
RRIRTRPPRLPRPRPRPKCGPRP; middle
RRIRGRPPRLPRPRPRPDQYPRP; lowest
RRIRVRPPRLPRPRPRPMVKPRP; lowest
RRIRSRPPRLPRPRPRPAMEPRP; middle
RRIRLRPPRLPRPRPRPKGVPRP; middle
RRIRPRPPRLPRPRPRPKFLPRP; middle
RRIRKRPPRLPRPRPRPEFCPRP; highest
RRIRDRPPRLPRPRPRPNQWPRP; highest
